# experimentalTarget: Ustilago maydis ACC (Mycosarcoma maydis)
# experimentSummary: biochemical
# Assay type: biochemical
# conditionDetails: Table I; read-out: In vitro IC50 U. maydis ACC activity
pIC50: −log10 of the molar value.
assayEndpoint: pIC50

{"columns": ["compound", "assayEndpoint", "endpointValue"],
 "data": [
  ["Cc1cc(C)cc(CN(CCC[N+](C)(C)Cc2cc(C)cc(C)c2)Cc2cc(C)cc(C)c2)c1 [Compound 26]", "pIC50", 4.41],
  ["COc1cc2c(=O)n(CCCC[N+](C)(C)Cc3ccc(Br)cc3)c(=S)n(Cc3ccc(Br)cc3)c2c(OC)c1OC [Compound 15]", "pIC50", 4.80],
  ["Cc1cc(C)cc(CN(CC[N+](C)(C)Cc2cc(C)cc(C)c2)Cc2cc(C)cc(C)c2)c1 [Compound 25]", "pIC50", 4.38],
  ["COc1cc2c(=O)n(CCCC[N+](C)(CCC[N+](C)(C)Cc3cc(C)cc(C)c3)Cc3cc(C)cc(C)c3)c(SCc3cc(C)cc(C)c3)nc2c(OC)c1OC (stereo not drawn) [Compound 22]", "pIC50", 4.92],
  ["C[N+]1(Cc2ccc(Cl)c(Cl)c2)CCN(CCCn2c(SCc3ccc(Cl)c(Cl)c3)nc3ccc(Br)cc3c2=O)CC1 [Compound 7]", "pIC50", 4.77],
  ["Cc1cc(C)cc(CN(CCCC[N+](C)(C)Cc2cc(C)cc(C)c2)Cc2cc(C)cc(C)c2)c1 [Compound 19]", "pIC50", 4.68]
]}

----------
# experimentalTarget: yeast wt BC domain (Saccharomyces cerevisiae)
# Sequence (Q00955 58-567): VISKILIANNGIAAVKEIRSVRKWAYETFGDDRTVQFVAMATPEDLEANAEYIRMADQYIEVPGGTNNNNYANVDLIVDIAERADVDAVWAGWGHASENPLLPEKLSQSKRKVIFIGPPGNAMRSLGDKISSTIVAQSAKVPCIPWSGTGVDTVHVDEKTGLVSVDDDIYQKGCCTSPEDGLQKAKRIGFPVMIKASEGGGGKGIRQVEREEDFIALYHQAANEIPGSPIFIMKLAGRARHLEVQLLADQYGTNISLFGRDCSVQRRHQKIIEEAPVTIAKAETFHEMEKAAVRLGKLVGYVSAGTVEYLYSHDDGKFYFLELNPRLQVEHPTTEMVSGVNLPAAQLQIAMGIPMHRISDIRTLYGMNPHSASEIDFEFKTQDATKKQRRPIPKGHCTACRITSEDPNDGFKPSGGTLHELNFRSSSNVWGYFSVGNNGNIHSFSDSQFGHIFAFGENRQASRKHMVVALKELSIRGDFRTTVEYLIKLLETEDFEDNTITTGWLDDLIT
# experimentSummary: Tryptophan fluorescence binding assay
# conditionDetails: protein concentration = 200 nM
pEC50: −log10 of the molar value.

{"columns": ["molecule", "experimentalTarget", "pEC50"],
 "data": [
  ["CO[C@H]1CCCC[C@@H](c2ccccc2)OC(=O)[C@@H](C)[C@@]2(O)O[C@H]([C@@H](C)[C@H](O)[C@H]2OC)[C@@H](C)/C=C/[C@H]1OC [soraphen A, Soraphen A, reference compound]", "yeast wt BC domain (Saccharomyces cerevisiae)", 7.05],
  ["CC[N+](CC)(CCCCN(Cc1cc(C)cc(C)c1)Cc1cc(C)cc(C)c1)Cc1cc(C)cc(C)c1.[Br-] [Compound 28, formate]", "yeast wt BC domain (Saccharomyces cerevisiae)", 4.96]
]}

----------
# experimentalTarget: Ustilago maydis ACC (Mycosarcoma maydis, UniProt A0A0D1DYD5)
# Sequence (A0A0D1DYD5 entry or part of it): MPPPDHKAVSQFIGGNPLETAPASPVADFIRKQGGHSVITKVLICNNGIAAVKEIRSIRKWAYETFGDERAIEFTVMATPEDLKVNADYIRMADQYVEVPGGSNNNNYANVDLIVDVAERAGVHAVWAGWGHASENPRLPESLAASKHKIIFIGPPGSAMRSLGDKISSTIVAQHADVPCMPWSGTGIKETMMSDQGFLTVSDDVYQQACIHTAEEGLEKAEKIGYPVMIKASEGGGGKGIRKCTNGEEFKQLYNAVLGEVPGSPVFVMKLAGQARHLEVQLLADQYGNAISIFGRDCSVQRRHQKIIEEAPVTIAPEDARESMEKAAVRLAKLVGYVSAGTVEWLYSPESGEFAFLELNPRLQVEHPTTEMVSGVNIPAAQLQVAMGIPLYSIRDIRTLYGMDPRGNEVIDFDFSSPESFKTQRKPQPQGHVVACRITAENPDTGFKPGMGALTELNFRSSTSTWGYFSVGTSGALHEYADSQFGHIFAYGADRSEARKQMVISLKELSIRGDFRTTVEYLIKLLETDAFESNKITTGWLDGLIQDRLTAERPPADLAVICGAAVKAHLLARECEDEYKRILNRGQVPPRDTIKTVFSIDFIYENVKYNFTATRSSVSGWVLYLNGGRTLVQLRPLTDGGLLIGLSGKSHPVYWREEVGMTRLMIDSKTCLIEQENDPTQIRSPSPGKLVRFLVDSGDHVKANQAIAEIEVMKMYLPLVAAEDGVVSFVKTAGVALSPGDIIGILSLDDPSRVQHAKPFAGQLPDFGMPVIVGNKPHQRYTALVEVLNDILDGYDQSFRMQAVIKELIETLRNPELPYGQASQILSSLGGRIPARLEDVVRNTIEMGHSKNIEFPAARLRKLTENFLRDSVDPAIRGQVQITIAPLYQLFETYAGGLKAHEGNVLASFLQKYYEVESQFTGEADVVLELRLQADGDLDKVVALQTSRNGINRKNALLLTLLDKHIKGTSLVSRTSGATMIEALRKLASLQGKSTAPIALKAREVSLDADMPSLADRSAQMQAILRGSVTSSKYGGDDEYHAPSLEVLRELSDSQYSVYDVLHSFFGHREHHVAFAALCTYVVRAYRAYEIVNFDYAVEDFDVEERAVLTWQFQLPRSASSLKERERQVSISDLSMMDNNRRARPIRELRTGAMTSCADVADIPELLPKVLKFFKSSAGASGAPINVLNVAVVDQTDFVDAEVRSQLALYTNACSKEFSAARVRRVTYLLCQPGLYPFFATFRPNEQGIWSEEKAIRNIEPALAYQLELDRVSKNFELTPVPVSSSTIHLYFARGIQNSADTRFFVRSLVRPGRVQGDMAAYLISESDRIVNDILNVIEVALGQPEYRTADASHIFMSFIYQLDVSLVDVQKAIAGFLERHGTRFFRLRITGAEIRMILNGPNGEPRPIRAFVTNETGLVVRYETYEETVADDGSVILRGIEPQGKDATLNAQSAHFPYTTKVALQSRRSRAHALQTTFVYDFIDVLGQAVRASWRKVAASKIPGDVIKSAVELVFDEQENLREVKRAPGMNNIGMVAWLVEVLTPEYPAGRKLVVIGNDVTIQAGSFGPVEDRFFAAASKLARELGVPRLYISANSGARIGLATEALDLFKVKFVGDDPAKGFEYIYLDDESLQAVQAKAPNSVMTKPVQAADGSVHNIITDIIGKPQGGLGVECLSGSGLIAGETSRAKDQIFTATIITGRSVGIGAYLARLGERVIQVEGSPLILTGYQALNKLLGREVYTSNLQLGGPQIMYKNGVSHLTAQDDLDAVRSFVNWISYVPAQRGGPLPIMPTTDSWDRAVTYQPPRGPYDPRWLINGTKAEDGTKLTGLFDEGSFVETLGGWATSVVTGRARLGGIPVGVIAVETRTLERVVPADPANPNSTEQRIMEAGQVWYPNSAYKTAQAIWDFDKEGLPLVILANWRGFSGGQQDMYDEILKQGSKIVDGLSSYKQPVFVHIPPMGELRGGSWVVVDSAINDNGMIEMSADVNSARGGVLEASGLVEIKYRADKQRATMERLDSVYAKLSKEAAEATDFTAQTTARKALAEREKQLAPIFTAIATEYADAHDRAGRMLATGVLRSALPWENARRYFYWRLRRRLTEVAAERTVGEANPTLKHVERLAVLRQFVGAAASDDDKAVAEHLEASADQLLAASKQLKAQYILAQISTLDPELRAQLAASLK
# experimentSummary: biochemical
# Assay type: biochemical
# conditionDetails: Table II; enzyme concentration 50 nM; read-out: Enzyme Activity IC50 U. maydis ACC
log10(IC50) for assorted molecules
assayEndpoint: log10(IC50) (log10 of the value in nM)

{"columns": ["molecule", "assayEndpoint", "endpointValue"],
 "data": [
  ["CC[N+](CC)(CCCCN(Cc1ccc2ccccc2c1)C(=O)c1sc2c(Cl)c(OC)ccc2c1Cl)Cc1cc(C)cc(C)c1", "log10(IC50)", 2.26],
  ["CO[C@H]1CCCC[C@@H](c2ccccc2)OC(=O)[C@@H](C)[C@@]2(O)O[C@H]([C@@H](C)[C@H](O)[C@H]2OC)[C@@H](C)/C=C/[C@H]1OC [soraphen A, Soraphen A, reference compound]", "log10(IC50)", 1.23],
  ["Cc1cc(C)cc(CN(CCCC[N+](C)(C)Cc2cc(C)cc(C)c2)S(=O)(=O)c2ccc(Br)cc2)c1", "log10(IC50)", 3.95],
  ["CC[N+](CC)(CCCCN(Cc1cc(C)cc(C)c1)C(=O)c1cc(C)cc(C)c1)Cc1cc(C)cc(C)c1", "log10(IC50)", 4.48],
  ["CC[N+](CC)(CCCCN(Cc1cc(C)cc(C)c1)S(=O)(=O)c1ccc2ccccc2c1)Cc1cc(C)cc(C)c1", "log10(IC50)", 4.18],
  ["CC[N+](CC)(CCCCN(Cc1cc(C)cc(C)c1)C(=O)c1ccc2ccccc2c1)Cc1cc(C)cc(C)c1", "log10(IC50)", 3.48],
  ["CC[N+](CC)(CCCCN(Cc1ccc2ccccc2c1)S(=O)(=O)c1cccc(Cl)c1Cl)Cc1cc(C)cc(C)c1", "log10(IC50)", 3.15],
  ["CC[N+](CC)(CCCCN(Cc1ccc2ccccc2c1)C(=O)c1cc2cccc(OC)c2cc1OC)Cc1cc(C)cc(C)c1", "log10(IC50)", 3.15],
  ["CC[N+](CC)(CCCCN(Cc1ccc2ccccc2c1)C(=O)c1sc2cccc(Cl)c2c1Cl)Cc1cc(C)cc(C)c1.[Br-]", "log10(IC50)", 1.60],
  ["Cc1cc(C)cc(CN(CCCC[N+](C)(C)Cc2cc(C)cc(C)c2)C(=S)Nc2c(F)cccc2F)c1", "log10(IC50)", 3.95]
]}

----------
# Tested on: Septoria tritici
# experimentSummary: Fungicidal activity, microtiter plate agar growth assay
# Assay type: cell-based
# conditionDetails: Zymoseptoria tritici; fungal growth on agar, 20° C., 3-5 days; read-out: In vivo IC50 S. tritici
pIC50: −log10 of the molar value.
assayEndpoint: pIC50

{"columns": ["compound", "endpointValue"],
 "data": [
  ["Cc1cc(C)cc(CN(CC[N+](C)(C)Cc2cc(C)cc(C)c2)Cc2cc(C)cc(C)c2)c1", 5.00],
  ["C[N+]1(Cc2ccc(Cl)c(Cl)c2)CCN(CCCn2c(SCc3ccc(Cl)c(Cl)c3)nc3ccc(Br)cc3c2=O)CC1", 5.32],
  ["COc1cc2c(=O)n(CCCC[N+](C)(CCC[N+](C)(C)Cc3cc(C)cc(C)c3)Cc3cc(C)cc(C)c3)c(SCc3cc(C)cc(C)c3)nc2c(OC)c1OC (stereo not drawn)", 5.36],
  ["COc1cc2c(=O)n(CCCC[N+](C)(C)Cc3ccc(Br)cc3)c(=S)n(Cc3ccc(Br)cc3)c2c(OC)c1OC", 5.40],
  ["Cc1cc(C)cc(CN(CCC[N+](C)(C)Cc2cc(C)cc(C)c2)Cc2cc(C)cc(C)c2)c1", 5.22],
  ["Cc1cc(C)cc(CN(CCCC[N+](C)(C)Cc2cc(C)cc(C)c2)Cc2cc(C)cc(C)c2)c1", 4.66]
]}

----------
In this section, each of the molecules is paired with its reported log10(IC50).
# Test system: Stagonospora nodorum
# experimentSummary: Fungicidal activity, microtiter plate agar growth assay
# Format: cell-based
# conditionDetails: Parastagonospora nodorum; fungal growth on agar, 20° C., 3-5 days; read-out: In vivo IC50 S. nodorum
assayEndpoint: log10(IC50) (log10 of the value in µM)

{"columns": ["molecule", "endpointValue"],
 "data": [
  ["Cc1cc(C)cc(CN(CC[N+](C)(C)Cc2cc(C)cc(C)c2)Cc2cc(C)cc(C)c2)c1", 0.76],
  ["Cc1cc(C)cc(CN(CCCC[N+](C)(C)Cc2cc(C)cc(C)c2)Cc2cc(C)cc(C)c2)c1", 1.81],
  ["COc1cc2c(=O)n(CCCC[N+](C)(CCC[N+](C)(C)Cc3cc(C)cc(C)c3)Cc3cc(C)cc(C)c3)c(SCc3cc(C)cc(C)c3)nc2c(OC)c1OC (stereo not drawn)", 0.66],
  ["Cc1cc(C)cc(CN(CCC[N+](C)(C)Cc2cc(C)cc(C)c2)Cc2cc(C)cc(C)c2)c1", 0.70],
  ["C[N+]1(Cc2ccc(Cl)c(Cl)c2)CCN(CCCn2c(SCc3ccc(Cl)c(Cl)c3)nc3ccc(Br)cc3c2=O)CC1", 0.90],
  ["COc1cc2c(=O)n(CCCC[N+](C)(C)Cc3ccc(Br)cc3)c(=S)n(Cc3ccc(Br)cc3)c2c(OC)c1OC", 0.90]
]}

----------
# experimentalTarget: Ustilago maydis ACC (Mycosarcoma maydis, UniProt A0A0D1DYD5)
# experimentSummary: biochemical
# Assay type: biochemical
# conditionDetails: In vitro IC50 U. maydis ACC activity
pIC50: −log10 of the molar value.

{"columns": ["molecule", "experimentalTarget", "pIC50"],
 "data": [
  ["CC[N+](CC)(CCCCN(Cc1cc(C)cc(C)c1)Cc1cc(C)cc(C)c1)Cc1cc(C)cc(C)c1.[Br-] [Compound 28, formate]", "Ustilago maydis ACC (Mycosarcoma maydis, UniProt A0A0D1DYD5)", 4.77]
]}

----------
# Tested on: Phytophthora infestans
# experimentSummary: microbe, parasite or virus in culture
# Format: cell-based
# conditionDetails: read-out: In vivo IC50 P. infestens
pIC50: −log10 of the molar value.
assayEndpoint: pIC50

{"columns": ["compound", "endpointValue"],
 "data": [
  ["C[N+]1(Cc2ccc(Cl)c(Cl)c2)CCN(CCCn2c(SCc3ccc(Cl)c(Cl)c3)nc3ccc(Br)cc3c2=O)CC1", 3.70],
  ["COc1cc2c(=O)n(CCCC[N+](C)(CCC[N+](C)(C)Cc3cc(C)cc(C)c3)Cc3cc(C)cc(C)c3)c(SCc3cc(C)cc(C)c3)nc2c(OC)c1OC (stereo not shown)", 4.46],
  ["Cc1cc(C)cc(CN(CC[N+](C)(C)Cc2cc(C)cc(C)c2)Cc2cc(C)cc(C)c2)c1", 4.74],
  ["Cc1cc(C)cc(CN(CCC[N+](C)(C)Cc2cc(C)cc(C)c2)Cc2cc(C)cc(C)c2)c1", 4.63],
  ["COc1cc2c(=O)n(CCCC[N+](C)(C)Cc3ccc(Br)cc3)c(=S)n(Cc3ccc(Br)cc3)c2c(OC)c1OC", 4.74],
  ["Cc1cc(C)cc(CN(CCCC[N+](C)(C)Cc2cc(C)cc(C)c2)Cc2cc(C)cc(C)c2)c1", 4.60],
  ["CC[N+](CC)(CCCCN(Cc1cc(C)cc(C)c1)Cc1cc(C)cc(C)c1)Cc1cc(C)cc(C)c1.[Br-] [Compound 28, formate]", 4.67]
]}
